test system: U-937 (hystiocytic lymphoma); experiment: 72-hour IC50 determination for non-adherent cells using MTS; format: cell-based, human; conditions: 72-hour exposure; MTS; error is standard deviation of the mean, n ≧ 3; read-out: U-937, 72-hour IC50 (Table E1-1)
experimental.readout: pIC50
Friendly reminder that pIC50 comes from taking -log10 of the concentration in mol/L.

CN1C(=O)C23CC4(c5c[nH]c6ccccc56)c5ccccc5N(S(=O)(=O)c5ccccc5)C4N2C(=O)C1(C)SC(=S)S3 (centres unmarked) [Compound 64, C3-(Indo-3′-v)dithiepanethiones] ... 7.62

Next:
Bench note, U-937 (hystiocytic lymphoma): entry "CC(=O)OC[C@]12SS[C@@]3(C[C@]4([C@]56C[C@@]78SS[C@@](COC(C)=O)(C(=O)N7[C@H]5Nc5ccccc56)N(C)C8=O)c5ccccc5N[C@@H]4N3C1=O)C(=O)N2C" , its pIC50 = 8.33

* * *

system: U-937 (hystiocytic lymphoma); assay: 72-hour IC50 determination for non-adherent cells using MTS; type: cell-based, human; conditions: 72-hour exposure; MTS; error is standard deviation of the mean, n ≧ 3; read-out: U-937, 72-hour IC50 (Table E1-1)
experimental.readout: IC50

Use the examples below as a reference point.
COCCOCS[C@H]1C(=O)N2[C@H]3N(S(=O)(=O)c4ccccc4)c4ccccc4[C@@]3(c3cn(C(=O)OC(C)(C)C)c4ccccc34)C[C@]2(S)C(=O)N1C ... > 10000 nM
CN1C(=O)[C@@]23C[C@]4([C@]56C[C@@]78SS[C@@](C)(C(=O)N7[C@H]5N(S(=O)(=O)c5ccccc5)c5ccccc56)N(C)C8=O)c5ccccc5N(S(=O)(=O)c5ccccc5)[C@@H]4N2C(=O)[C@]1(C)SS3 [Compound 14, Dimeric epidithiodiketopiperazine] ... 0.18 nM

IC50 reading for "CN1C(=O)[C@]2(O)C[C@]3([C@]45C[C@@]6(O)C(=O)N(C)[C@](C)(O)C(=O)N6[C@H]4N(S(=O)(=O)c4ccccc4)c4ccccc45)c4ccccc4N(S(=O)(=O)c4ccccc4)[C@@H]3N2C(=O)[C@@]1(C)O" : > 1000 nM

"CC(=O)OC[C@@]1(OC(=O)C(C)C)C(=O)N2[C@H]3Nc4ccccc4[C@@]3([C@]34C[C@]5(SSSC(c6ccccc6)(c6ccccc6)c6ccccc6)C(=O)N(C)[C@](COC(C)=O)(OC(=O)C(C)C)C(=O)N5[C@H]3Nc3ccccc34)C[C@]2(SSSC(c2ccccc2)(c2ccccc2)c2ccccc2)C(=O)N1C" yielded IC50 of > 10000 nM

IC50 measured on CN1C(=O)C23CC4(c5c[nH]c6ccccc56)c5ccccc5N(S(=O)(=O)c5ccccc5)C4N2C(=O)C1SS3 (centres unmarked) = 2.8 nM

Briefly, IC50 measured for "CC(C)C(=O)O[C@@H]1C(=O)N2[C@H]3N(S(=O)(=O)c4ccccc4)c4ccccc4[C@@]3(c3c[nH]c4ccccc34)C[C@]2(SC(=O)C(C)C)C(=O)N1C" : > 1000 nM

The compound identified as CN1C(=O)[C@]23C[C@]4(Br)c5ccccc5N(S(=O)(=O)c5ccccc5)[C@@H]4N2C(=O)[C@H]1SS3 [Compound 34, C3-Bromo epidithiodiketopiperazines] registered its IC50 at 59 nM

// recorded IC50 for CC(=O)OC[C@@]1(OC(=O)C(C)C)C(=O)N2[C@H]3N(S(=O)(=O)c4ccccc4)c4ccccc4[C@@]3([C@]34C[C@]5(SSSC(c6ccccc6)(c6ccccc6)c6ccccc6)C(=O)N(C)[C@](COC(C)=O)(OC(=O)C(C)C)C(=O)N5[C@H]3N(S(=O)(=O)c3ccccc3)c3ccccc34)C[C@]2(SSSC(c2ccccc2)(c2ccccc2)c2ccccc2)C(=O)N1C [Compound 19, Dimeric bis(triphenylmethanetrisulfide)] : > 10000 nM
